- Tested on: SR leukemia
- assay: NCI tumour cell line growth inhibition, 48 h; in the data active means GI50 below about 0.43 µM; inactive means the rest
Classes used: Y = active, N = inactive

# compound, qualitative-label
records = [
    ("Cc1cccc(Cc2cnc(NC(=O)CCc3ccc(C)o3)s2)c1", "Y"),
    ("CCN(CC)C(=S)[S][Bi]([S]C(=S)N(CC)CC)[S]C(=S)N(CC)CC", "Y"),
    ("CC(=O)c1cc(O)c2ccccc2c1O", "N"),
    ("CCN(c1cc(C#CCN2CCOCC2)cc(C(=O)NCc2c(C)cc(C)[nH]c2=O)c1C)C1CCC(N(C)CCOC)CC1 (centres undefined)", "N"),
    ("Cc1cc(I)cc(CN(C)CCCN2CCN(C)CC2)c1O", "N"),
    ("CC1=NN(c2nc(N)nc(/C=C\\c3ccc([N+](=O)[O-])s3)n2)C(C)(C)C1", "N"),
    ("CS(=O)(=O)N(c1cc(-c2ccc3ncnc(Nc4cccc(Cl)c4)c3c2)cnc1Cl)S(C)(=O)=O", "N"),
    ("COc1cc(-c2csc(NC(=O)Nc3cc(Cl)cc(Cl)c3)n2)cc(OC)c1OC", "N"),
    ("CC[C@H](C)C(=O)O[C@H]1C[C@H](O)C=C2C=C[C@H](C)[C@H](CC[C@@H](O)C[C@@H](O)CC(=O)O)[C@H]21", "N"),
]
